pIC50 values by entry
biological target: HCV polymerase (NS5B570n-Con1) (Hepatitis C virus genotype 1b); construct: contains a 21 amino acid deletion at the C-terminus relative to the full-length HCV polymerase; 6-histidine (N); test: HCV NS5B RNA Polymerase Activity
pIC50: −log10 of the molar value.
outcome_measure: pIC50

compound	test_system	value_reported
COc1[nH]c(=O)c(-c2cc(C(C)(C)C)c(OC)c3cc(-c4ccc(NS(C)(=O)=O)cc4)cnc23)cc1F [Compound I-47]	HCV polymerase (NS5B570n-Con1) (Hepatitis C virus genotype 1b)	7.89
CC(C)(C)c1cc(-c2cc(F)c[nH]c2=O)c2ncc(N3CCC(NS(C)(=O)=O)CC3)nc2c1 [Compound I-5]	HCV polymerase (NS5B570n-Con1) (Hepatitis C virus genotype 1b)	6.09
COc1c(C(C)(C)C)cc(-c2ccc(C)[nH]c2=O)c2ncc(OCCCNS(C)(=O)=O)cc12 [Compound I-45]	HCV polymerase (NS5B570n-Con1) (Hepatitis C virus genotype 1b)	7.93
COc1c(C(C)(C)C)cc(-c2ccc[nH]c2=O)c2ncc(N3CC(CNS(C)(=O)=O)C3)cc12 [Compound I-19]	HCV polymerase (NS5B570n-Con1) (Hepatitis C virus genotype 1b)	8.52
COc1c(C(C)(C)C)cc(-c2cc(F)c[nH]c2=O)c2ncc(-c3ccc(NS(C)(=O)=O)cc3)cc12 [Compound I-23]	HCV polymerase (NS5B570n-Con1) (Hepatitis C virus genotype 1b)	9.00
COc1c(C(C)(C)C)cc(-c2ccc(C)[nH]c2=O)c2ncc(-c3ccc(NS(C)(=O)=O)cc3)cc12 [Compound I-24]	HCV polymerase (NS5B570n-Con1) (Hepatitis C virus genotype 1b)	9.00
COc1nc2c(-c3ccc[nH]c3=O)cc(C(C)(C)C)cc2cc1-c1ccc(NS(C)(=O)=O)cc1 [Compound I-1]	HCV polymerase (NS5B570n-Con1) (Hepatitis C virus genotype 1b)	8.10
COc1c(C(C)(C)C)cc(-c2ccncc2F)c2ncc(-c3ccc(NS(C)(=O)=O)cc3)cc12 [Compound I-26]	HCV polymerase (NS5B570n-Con1) (Hepatitis C virus genotype 1b)	9.00
COc1c(C(C)(C)C)cc(N2CCCNC2=O)c2ncc(-c3ccc(NS(C)(=O)=O)cc3)cc12 [Compound I-27]	HCV polymerase (NS5B570n-Con1) (Hepatitis C virus genotype 1b)	9.15
COc1c(C(C)(C)C)cc(-n2ccc(=O)[nH]c2=O)c2ncc(N3CC[C@H](CNS(C)(=O)=O)C3)cc12 [Compound I-52]	HCV polymerase (NS5B570n-Con1) (Hepatitis C virus genotype 1b)	8.46
COc1c(C(F)(F)F)cc(-c2ccc(C)[nH]c2=O)c2ncc(-c3ccc(NS(C)(=O)=O)cc3)cc12 [Compound I-49]	HCV polymerase (NS5B570n-Con1) (Hepatitis C virus genotype 1b)	9.15
COc1c(C(C)(C)C)cc(-c2ccc[nH]c2=O)c2ncc(Br)cc12 [Compound I-16]	HCV polymerase (NS5B570n-Con1) (Hepatitis C virus genotype 1b)	7.23
COc1ccc(-c2cc(C(F)(F)F)c(OC)c3cc(-c4ccc(NS(C)(=O)=O)cc4)cnc23)c(=O)[nH]1 [Compound I-50]	HCV polymerase (NS5B570n-Con1) (Hepatitis C virus genotype 1b)	9.22
Br.[2H]C([2H])([2H])C(c1cc(-c2ccc(OC)[nH]c2=O)c2ncc(-c3ccc(NS(C)(=O)=O)cc3)cc2c1OC)(C([2H])([2H])[2H])C([2H])([2H])[2H] [Compound I-32]	HCV polymerase (NS5B570n-Con1) (Hepatitis C virus genotype 1b)	9.10

Source listed as patent US8487103B2.
